tested on: Pro5-aDG cells, alpha-DG glycosylation, IIH6 AlphaLISA; assay: alpha-DG glycosylation activators, EC50, dose response, Pro5-aDG cells, AlphaLISA (AID 651684)
The source made the active and inactive calls.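 The calls were made as follows: active = any single replicate giving an EC50 below 30 µM; inactive = the rest.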
Reported EC50 values for the following compounds.
Observation Type: EC50

Compound	Reported Measurement
O=C1C(=O)N(CCS(=O)(=O)c2ccccc2)c2ccc(F)cc21	9.36 µM
CC(C)Oc1ccc(OCCCN2CCCCCC2)cc1	12.4 µM
CCCn1c(=N)n(CC(=O)c2ccc(Cl)cc2)c2ccccc21	33.6 µM
Cc1cc(Br)ccc1OCCCCNC(C)(C)C	12.2 µM
CC(C)COc1ccc(CSCCNC(=S)Nc2ccccc2)cc1	6.37 µM
C/C=C/c1ccc(OCCCNC2CCCC2)c(OC)c1	11.7 µM
COc1cc(CNCCN(C)C)ccc1OCc1c(F)cccc1Cl	18 µM
Brc1ccc2ncnc(NCc3ccccc3)c2c1	3.34 µM
CC(C)(C)c1ccc(C(=O)Nc2ccc(C(=O)NCc3cccnc3)cc2)cc1	2.48 µM
CCC(c1nnnn1Cc1cccs1)N1CCN(c2nc3ccccc3s2)CC1 (centres undefined)	22.6 µM
N#Cc1ccsc1NC(=O)c1ccc2ncsc2c1	42.7 µM
Cc1cccc(CN2CCC(CNC(=O)Nc3ccc(F)c(Cl)c3)CC2)c1	8.57 µM
COc1ccccc1NC(=O)Nc1nc(C(N)Cc2ccccc2)cs1 (centres undefined)	> 80 µM (inactive)
Cc1nc(SCC(=O)Nc2cc(C(N)=O)cc(C(N)=O)c2)c2c(C)c(C)sc2n1	28.5 µM
COc1cc(CNC(=O)Nc2nc(C(N)Cc3ccc(Cl)cc3)cs2)cc(OC)c1OC (centres undefined)	> 80 µM (inactive)
CCOc1ccc(NC(=O)c2ccc(F)c(S(=O)(=O)N3CCN(c4ccccn4)CC3)c2)cc1	> 80 µM (inactive)
O=C(Nc1cccc2ccccc12)c1ccc([N+](=O)[O-])s1	6.88 µM
CCOc1ccc(-n2cc(C(=O)N3CCCCCC3)c3cc(OC)c(OC)cc3c2=O)cc1	5.6 µM
CCCC[n+]1ccn(C2=C([O-])c3ccccc3C(=O)/C2=N\S(=O)(=O)c2ccc(Br)cc2)c1	6.95 µM
CCCCCNCC(=O)Nc1cccc(C(=O)Nc2cccc(C(F)(F)F)c2)c1	11.6 µM
CC(C)n1cc(CN2CCCC(C(=O)Nc3cccc(-c4cc5ccccc5[nH]4)c3)C2)cn1 (centres undefined)	> 80 µM (inactive)
COCCN1CCC(CNCc2cn(-c3cc(C)ccc3C)nc2-c2ccccc2)C1 (centres undefined)	> 80 µM (inactive)
COc1cc2[nH]c3c(=O)n4c(nc3c2cc1OC)SCCC4	6.47 µM
O=C(Nc1ccccc1F)c1ccc([N+](=O)[O-])s1	8.89 µM
CC1CCCN(S(=O)(=O)c2ccc(C(=O)Nc3sc4c(c3C(N)=O)CCN(C)C4)cc2)C1 (centres undefined)	12.3 µM
O=C(CNC(=O)c1ccccc1)N/N=C/c1ccc([N+](=O)[O-])s1	6.46 µM
Brc1cccc(-c2nc3c4ccccc4ccn3c2CC2CCCCC2)c1	23.7 µM
CCn1c(=N)n(CC(=O)c2ccc(Cl)c(Cl)c2)c2ccccc21	32 µM (inactive)
CC(C)c1ccc(-c2cc(C(=O)N3CCOCC3)c3cc(Br)ccc3n2)cc1	6.31 µM
